Test system: Es-2
protocolDescription: Primary qHTS to identify gynecologic anti-cancer compounds using libraries of approved drugs and bioactive compounds (AID 1345084); further: nearly all actives have a fitted effect of over 55% in size
particulars: Gynecologic cancer cell panel viability, ATPlite luminescence, 48 h; series mostly up to 57.5 µM
Records with an inconclusive call do not appear. Activity calls are given as the source filed them. The call rests on the fitted dose curve; in most records, active means well fitted cell-killing curve with a large enough effect; inconclusive means small, poorly fitted or top-dose-only effect, or effect the other way; inactive means flat fitted curve, though single readings scatter.
Classes used: active, inactive

# compound, qualitativeLabel
rows = [
    ("O=C(OCC1=CC(O)C2C=CO[C@@H](O[C@@H]3O[C@H](CO)[C@@H](O)[C@H](O)[C@H]3O)C12)c1ccccc1 (stereo not given in full)", "inactive"),
    ("C/C(=C\\CCC(C)CCO)C(=O)OC1(C)CCC2C(C(=O)O)=COC(OC3OC(CO)C(O)C(O)C3O)C21 (stereo not given)", "inactive"),
    ("COC(=O)CCSCc1ccc(-c2onc(C)c2NC(=O)OC(C)c2ccccc2Cl)cc1 (stereo not given)", "inactive"),
    ("COc1ccc2cc(C(C)C(=O)Oc3ccc(C(N)=S)cc3)ccc2c1 (stereo not given)", "inactive"),
    ("C[C@H]1CC[C@@H]2N(C1)C[C@@H]1[C@H]([C@@H](O)[C@H](O)[C@]3(O)[C@H]1C[C@@]14OC5(O)[C@@H](C[C@@H](O)[C@@H]31)[C@]4(C)CC[C@@H]5O)[C@]2(C)O", "inactive"),
    ("COc1cccc(Nc2ncnn3ccc(CN4CC[C@@H](N)[C@H](O)C4)c23)c1", "inactive"),
    ("CC(=O)OC1CC2(C)C3=CCC4(C)C5C(O)C(O)C(C(C)C)C5(C)CCC4(C)C3CCC2C(C)(C)C1OC1OC(CO)C(O)C(O)C1O (stereo not given)", "inactive"),
    ("CC/C=C\\CCO[C@@H]1O[C@H](CO[C@@H]2OC[C@H](O)[C@H](O)[C@H]2O)[C@@H](O)[C@H](O)[C@H]1O", "inactive"),
    ("O=C(O)CC(=O)OC[C@H]1O[C@@H](Oc2ccc3c(c2)OC[C@H]2c4cc5c(cc4O[C@@H]32)OCO5)[C@H](O)[C@@H](O)[C@@H]1O", "inactive"),
    ("C=CC(=O)Nc1cccc(Nc2nc(Nc3ccc(N4CCN(C(C)=O)CC4)cc3OC)ncc2C(F)(F)F)c1", "inactive"),
    ("CC(Oc1ccc2[nH]nc(/C=C/c3cnn(CCO)c3)c2c1)c1c(Cl)cncc1Cl (stereo not given)", "active"),
    ("NC1(C(=O)NC(CCO)c2ccc(Cl)cc2)CCN(c2ncnc3[nH]ccc23)CC1 (stereo not given)", "inactive"),
    ("COc1c(Nc2ncc(Cl)c(N[C@H]3[C@@H](C(N)=O)[C@@H]4C=C[C@H]3C4)n2)ccc2c1CC[C@@H](N1CCOCC1)CC2", "inactive"),
    ("NC1CCC(Nc2cc(-c3cccc(NCc4cccc(F)c4)n3)c(Cl)cn2)CC1 (stereo not given)", "active"),
    ("C=C[C@H]1[C@H](O[C@@H]2O[C@H](CO)[C@@H](O)[C@H](O)[C@H]2O)OC=C(C(=O)OC)[C@H]1C[C@@H]1c2cc(O)c(O)cc2CCN1C(C)=O", "inactive"),
]
